Just for reference, the supplement of paper PMC11246515 is where these values come from.

procedure_text: total protein half-life in vivo (active degradation + dilution); higher = more stable protein
condition_set: E. coli NCM3722 delta-clpP delta-lon delta-hslV; growth: N-lim chemostat; doubling time 6 h
measurement_type: total protein half-life in vivo (h)
Value expressed in h; do not type the unit.

primary_sequence | total protein half-life in vivo [h]
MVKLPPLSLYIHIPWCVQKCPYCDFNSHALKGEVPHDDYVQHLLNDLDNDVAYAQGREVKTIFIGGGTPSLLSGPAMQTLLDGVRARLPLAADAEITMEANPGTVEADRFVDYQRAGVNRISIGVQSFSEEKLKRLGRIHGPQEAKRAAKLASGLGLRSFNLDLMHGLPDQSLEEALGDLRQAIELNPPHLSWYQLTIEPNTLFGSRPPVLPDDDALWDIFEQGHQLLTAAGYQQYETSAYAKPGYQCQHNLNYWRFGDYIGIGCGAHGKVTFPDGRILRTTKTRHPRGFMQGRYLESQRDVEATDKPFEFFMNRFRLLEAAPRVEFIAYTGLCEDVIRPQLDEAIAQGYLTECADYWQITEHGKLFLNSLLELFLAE | 4.14

Next, consider the following sequence.
[ask] Look up total protein half-life in vivo: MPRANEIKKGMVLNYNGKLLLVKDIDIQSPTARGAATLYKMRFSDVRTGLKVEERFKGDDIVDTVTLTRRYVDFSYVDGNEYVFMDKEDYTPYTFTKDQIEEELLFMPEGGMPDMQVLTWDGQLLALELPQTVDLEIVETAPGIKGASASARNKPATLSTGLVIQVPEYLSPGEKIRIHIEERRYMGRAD [P0A6N8]
[reply] 5.17

====

procedure_text: total protein half-life in vivo (active degradation + dilution); higher = more stable protein
condition_set: E. coli NCM3722 delta-clpP; growth: N-lim chemostat; doubling time 6 h
measurement_type: total protein half-life in vivo (h)
Reply with just the number (in h).

Field: example entries. Status: answers known.
primary_sequence | unit_spec | total protein half-life in vivo
MSEIKDVIVQGLWKNNSALVQLLGLCPLLAVTSTATNALGLGLATTLVLTLTNLTISTLRHWTPAEIRIPIYVMIIASVVSAVQMLINAYAFGLYQSLGIFIPLIVTNCIVVGRAEAFAAKKGPALSALDGFSIGMGATCAMFVLGSLREIIGNGTLFDGADALLGSWAKVLRVEIFHTDSPFLLAMLPPGAFIGLGLMLAGKYLIDERMKKRRAEAAAERALPNGETGNV | h | 3.52
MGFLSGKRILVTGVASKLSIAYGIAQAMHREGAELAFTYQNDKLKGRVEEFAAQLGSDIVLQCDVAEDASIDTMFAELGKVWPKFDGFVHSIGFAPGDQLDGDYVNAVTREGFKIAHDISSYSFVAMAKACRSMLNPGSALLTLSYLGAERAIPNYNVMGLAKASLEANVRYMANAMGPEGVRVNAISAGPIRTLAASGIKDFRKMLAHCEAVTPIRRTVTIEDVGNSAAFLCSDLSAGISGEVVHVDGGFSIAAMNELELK [P0AEK4] | h | 5.37
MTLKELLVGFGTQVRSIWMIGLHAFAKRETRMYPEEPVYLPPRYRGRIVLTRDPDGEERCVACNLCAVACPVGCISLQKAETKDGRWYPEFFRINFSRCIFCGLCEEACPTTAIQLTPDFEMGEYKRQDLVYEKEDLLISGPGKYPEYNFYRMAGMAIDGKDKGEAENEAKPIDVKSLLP [P0AFD6] | h | 7.36
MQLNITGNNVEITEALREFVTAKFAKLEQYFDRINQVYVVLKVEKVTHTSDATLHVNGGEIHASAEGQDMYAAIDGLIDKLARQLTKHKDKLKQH [P0AFX0] | h | 3.97
MFEYLPELMKGLHTSLTLTVASLIVALILALIFTIILTLKTPVLVWLVRGYITLFTGTPLLVQIFLIYYGPGQFPTLQEYPALWHLLSEPWLCALIALSLNSAAYTTQLFYGAIRAIPEGQWQSCSALGMSKKDTLAILLPYAFKRSLSSYSNEVVLVFKSTSLAYTITLMEVMGYSQLLYGRTYDVMVFGAAGIIYLVVNGLLTLMMRLIERKALAFERRN [P0AE30] | h | 6.27

[ask] Quick one: total protein half-life in vivo for MTSLYLASGSPRRQELLAQLGVTFERIVTGIEEQRQPQESAQQYVVRLAREKARAGVAQTAKDLPVLGADTIVILNGEVLEKPRDAEHAAQMLRKLSGQTHQVMTAVALADSQHILDCLVVTDVTFRTLTDEDIAGYVASDEPLDKAGAYGIQGLGGCFVRKINGSYHAVVGLPLVETYELLSNFNALREKRDKHDG ?
[reply] 3.38

[ask] Please do the same for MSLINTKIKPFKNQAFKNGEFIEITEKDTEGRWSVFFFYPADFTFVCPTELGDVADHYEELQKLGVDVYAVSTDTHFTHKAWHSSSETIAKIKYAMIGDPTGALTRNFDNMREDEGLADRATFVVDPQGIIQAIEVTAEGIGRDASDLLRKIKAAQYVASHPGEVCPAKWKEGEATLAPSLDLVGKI [P0AE08] as well.
[reply] 2.22

====

procedure_text: total protein half-life in vivo (active degradation + dilution); higher = more stable protein
condition_set: E. coli NCM3722 delta-smpB; growth: N-lim chemostat; doubling time 6 h
Each entry below carries its reported total protein half-life in vivo.
Field: numeric (h). Do not append units.

primary_sequence | total protein half-life in vivo (h)
MKRMIALDGAQGEGGGQILRSALSLSMITGQPFTITSIRAGRAKPGLLRQHLTAVKAATEICGATVEGAELGSQRLLFRPGTVRGGDYRFAIGSAGSCTLVLQTVLPALWFADGPSRVEVSGGTDNPSAPPADFIRRVLEPLLAKIGIHQQTTLLRHGFYPAGGGVVATEVSPVASFNTLQLGERGNIVQMRGEVLLAGVPRHVAEREIATLAGSFSLHEQNIHNLPRDQGPGNTVSLEVESENITERFFVVGEKRVSAEVVAAQLVKEVKRYLASTAAVGEYLADQLVLPMALAGAGEFTVAHPSCHLLTNIAVVERFLPVRFSLIETDGVTRVSIE | 4.17

[ask] Look at this sequence and give its reported total protein half-life in vivo. MEQRHITGKSHWYHETQSSTTEYDVLPLVPEAAKVSDPFLLDVILEKETLAPFLSWLDPARVLAVDLFPDQLTVTRSQTFTAYERLSTALTVAQVCGVQRLCNYYSARLTPLPGPDSTRESNHRLAQITQYARQLASSPSIIDNRSRQHLNDVGLTAWDCVIISQIIGFIGFQARTIATFQAYLGHPVRWLPGLEIQNYADASLFADESLRWRSSYEVEKLPEEHTKSSTAELCQLAEILSLHPISLSLLEKLLNSTRGNTQPDNQLAALLCARINGSPACFATCMDSSNEYKKISTLMRKGENEINQWADRHSVERATVQAIQWLTRAPDRFSAAQFSPLLEHEKSSTQIINLLVWSGLCGWINRLKIALGETY
[reply] 1.07

====

procedure_text: total protein half-life in vivo (active degradation + dilution); higher = more stable protein
condition_set: E. coli NCM3722 delta-lon; growth: N-lim chemostat; doubling time 6 h
Each record here notes measured total protein half-life in vivo.
Reply with the number and its unit after it.

Field: example entries. Status: answers known.
primary_sequence | total protein half-life in vivo
MDNRGEFLNNVAQALGRPLRLEPQAEDAPLNNYANERLTQLNQQQRCDAFIQFASDVMLTRCELTSEAKAAEAAIRLCKELGDQSVVISGDTRLEELGISERLQQECNAVVWDPAKGAENISQAEQAKVGVVYAEYGLTESGGVVLFSAAERGRSLSLLPEYSLFILRKSTILPRVAQLAEKLHQKAQAGERMPSCINIISGPSSTADIELIKVVGVHGPVKAVYLIIEDC | 2.67 h
MSTTWFVGADWLAEHIDDPEIQIIDARMASPGQEDRNVAQEYLNGHIPGAVFFDIEALSDHTSPLPHMLPRPETFAVAMRELGVNQDKHLIVYDEGNLFSAPRAWWMLRTFGVEKVSILGGGLAGWQRDDLLLEEGAVELPEGEFNAAFNPEAVVKVTDVLLASHENTAQIIDARPAARFNAEVDEPRPGLRRGHIPGALNVPWTELVREGELKTTDELDAIFFGRGVSYDKPIIVSCGSGVTAAVVLLALATLDVPNVKLYDGAWSEWGARADLPVEPVK | 6.38 h

[ask] Look at this sequence and give its reported total protein half-life in vivo. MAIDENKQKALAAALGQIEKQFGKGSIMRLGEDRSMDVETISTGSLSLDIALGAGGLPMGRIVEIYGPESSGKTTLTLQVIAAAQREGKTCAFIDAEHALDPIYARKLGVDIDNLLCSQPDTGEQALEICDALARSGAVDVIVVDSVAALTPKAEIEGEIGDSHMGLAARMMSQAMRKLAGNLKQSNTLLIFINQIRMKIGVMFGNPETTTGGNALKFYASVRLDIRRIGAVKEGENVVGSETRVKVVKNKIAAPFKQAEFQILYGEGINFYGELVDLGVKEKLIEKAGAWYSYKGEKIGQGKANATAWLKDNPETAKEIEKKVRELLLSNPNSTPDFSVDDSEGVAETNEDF [P0A7G6]
[reply] 3.27 h
